- Tested on: TK-10 renal
- Test Description: NCI tumour cell line growth inhibition, 48 h
Property Measured: TGI

Consider the worked cases shown below.
> print(dat)
                           item.smiles  value.measured
1  CN(C)/C=C/C(=CC=[N+](C)C)/C=C/N(C)C        > 100 µM
2                   O=NNc1ccc2ccccc2n1        > 100 µM
3          S=C(N/N=C/c1ccccn1)N1CCCCC1        > 100 µM

// below: TGI requested for another molecule
Can you share its TGI? I mean this molecule: N[C@H](C(=O)O)[C@@H]1CC(Cl)=NO1 > 609 µM
